# target-of-assay: Acyl-CoA desaturase 1 (Rattus norvegicus, UniProt P07308)
# Sequence (P07308 whole entry): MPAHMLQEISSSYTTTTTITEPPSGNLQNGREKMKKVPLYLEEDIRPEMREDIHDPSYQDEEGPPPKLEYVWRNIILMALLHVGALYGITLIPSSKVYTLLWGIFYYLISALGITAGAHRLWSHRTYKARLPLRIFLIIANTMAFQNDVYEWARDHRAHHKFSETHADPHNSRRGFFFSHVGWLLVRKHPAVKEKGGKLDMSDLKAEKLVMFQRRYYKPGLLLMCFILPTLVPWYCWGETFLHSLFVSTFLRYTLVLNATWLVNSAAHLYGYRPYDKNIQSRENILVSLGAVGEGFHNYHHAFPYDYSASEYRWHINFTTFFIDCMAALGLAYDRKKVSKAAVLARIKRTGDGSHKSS
# assay-comment: Inhibition of rat SCD by rat microsomal assay
pIC50: −log10 of the molar value.
recorded-metric: pIC50

Sample records with pIC50:
O=C(O)Cn1nnc(-c2cn(CCc3cc(Br)c(Br)c(Br)c3)nn2)n1 | 4.70
O=C(O)Cn1nnc(-c2cnc(-c3cn(Cc4cc(Cl)c(Cl)c(Cl)c4)nn3)s2)n1 | 7.31

1 = O=C(O)Cn1nnc(-c2cncc(-c3cn(Cc4cc(Br)c(Br)c(Br)c4)nn3)c2)n1
2 = O=C(O)Cn1nnc(-c2ccc(-c3cn(Cc4cc(Cl)c(Cl)c(Cl)c4)nn3)nn2)n1
3 = O=C(O)Cn1nnc(-c2cc(-c3cn(Cc4cc(Br)c(Br)c(Br)c4)nn3)no2)n1
Which order do these items take when sorted by rising pIC50? List them. Form field (ranking): labels in requested order.
2, 1, 3
(2: 5.74, 1: 7.25, 3: 7.68)

a = O=C(O)CCCc1nc(-c2cn(Cc3cc(Br)c(Br)c(Br)c3)nn2)no1
b = O=C(O)Cn1nnc(-c2cn(CCCc3cc(Br)c(Br)c(Br)c3)nn2)n1
Just curious, which one has the larger pIC50 reading, a or b ? Answer with the label corresponding to your selection.
a
(a: 6.67, b: 6.04)

* * *

# target-of-assay: Acyl-CoA desaturase 1 (Rattus norvegicus, UniProt P07308)
# assay-comment: Inhibition of rat SCD by rat microsomal assay
pIC50: −log10 of the molar value.
recorded-metric: pIC50

a = O=C(O)Cn1nnc(-c2cc(-c3cn(Cc4cc(Cl)c(Cl)c(Cl)c4)nn3)ccn2)n1
b = NC(=O)c1nnn(Cc2cc(Cl)c(Cl)c(Cl)c2)c1N
Please tell me which of the two, a or b , has the higher reported pIC50 value. To answer, give the label that identifies your chosen option.
b
(b: 7.92, a: 6.14)

* * *

# target-of-assay: Stearoyl-CoA desaturase (Homo sapiens)
# Sequence (O00767 whole entry): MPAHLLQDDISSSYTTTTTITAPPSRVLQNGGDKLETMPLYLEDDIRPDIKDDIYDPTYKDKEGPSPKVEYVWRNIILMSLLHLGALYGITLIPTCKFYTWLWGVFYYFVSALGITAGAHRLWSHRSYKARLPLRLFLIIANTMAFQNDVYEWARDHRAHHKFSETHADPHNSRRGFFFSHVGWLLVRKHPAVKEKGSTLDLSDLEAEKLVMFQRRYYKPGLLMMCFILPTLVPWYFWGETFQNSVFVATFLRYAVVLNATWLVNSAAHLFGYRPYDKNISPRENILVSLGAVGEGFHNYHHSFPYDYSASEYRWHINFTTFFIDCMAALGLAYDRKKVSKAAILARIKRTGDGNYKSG
# assay-comment: Inhibition of SCD in human HepG2 cells assessed as conversion of [1-(14)C]-stearic acid to (14)C-oleic acid
recorded-metric: IC50 (µM)

NC(=O)c1cn(Cc2cc(Br)c(Br)c(Br)c2)nn1 | 0.76

A = O=C(O)Cn1nnc(-c2cc(-c3cn(Cc4cc(Br)c(Br)c(Br)c4)nn3)no2)n1
B = O=C(O)Cn1nnc(-c2cncc(-c3cn(Cc4cc(Br)c(Br)c(Br)c4)nn3)c2)n1
Return label of the item with the larger IC50. Candidates: A , B . // respond with label for picked entry
A
(A: 37.7 µM, B: 6.31 µM)

* * *

# target-of-assay: Acyl-CoA desaturase 1 (Rattus norvegicus)
# assay-comment: Inhibition of SCD in rat hepatocytes assessed as conversion of [14C]-stearic acid to [14C]-oleic acid preincubated for 15 mins measured after 1 hrs by scintillation counting
# Format: cell-based, Hepatocyte
pIC50: −log10 of the molar value.
recorded-metric: pIC50

Below are worked cases with known answers.
NC(=O)c1cn(Cc2cc(Br)c(Br)c(Br)c2)nn1 | 5.00
O=C(O)Cn1nnc(-c2cncc(-c3cn(Cc4cc(Br)c(Br)c(Br)c4)nn3)c2)n1 | 6.16

1 = O=C(O)Cn1nnc(-c2cnc(-c3cn(Cc4cc(Cl)c(Cl)c(Cl)c4)nn3)s2)n1
2 = O=C(O)Cn1nnc(-c2cc(-c3cn(Cc4cc(Br)c(Br)c(Br)c4)nn3)no2)n1
Form: Entry with minimum pIC50 (choose one): 1 / 2 State the label of the item chosen.
1
(1: 6.01, 2: 6.67)

Source listed as ChEMBL document CHEMBL1914316.
